I'd appreciate it if you could supply Number of animals exhibiting muscle relaxation values for the items below.
Test system: Male mice of ddY strain
Assay: Test 3 Muscle relaxant activity (traction test, method of Courvoisier et al.)
Assay type: in vivo
Conditions: Table-4a; 50 mg/kg ip; 15 minutes after administration; groups of ten
Counter-ions that a name gives are not always drawn.
Lab note: record the figure alone, no unit after it.

Q: Read off the recorded Number of animals exhibiting muscle relaxation for CCc1ccc(C(=O)C(C)CN2CCCCC2)cc1 (stereo not shown) [Eperisone HCl, Eperisone, reference compound]
Ans: 2

Q: State, in one line, measured Number of animals exhibiting muscle relaxation of Cc1ccc(C(=O)C(C)CN2CCCCC2)cc1 (stereo not shown) [Tolperisone HCl, reference compound]
Ans: 1

Q: Specify measured Number of animals exhibiting muscle relaxation for CC(CN1CCCCCC1)C(=O)c1ccc(C2CC2)cc1.Cl (stereo not shown) .
Ans: 7

Q: Provide measured Number of animals exhibiting muscle relaxation value, entry: CC(CN1CCCC1)C(=O)c1ccc(C2CC2)cc1.Cl (stereo not shown)
Ans: 7

###

Assay: Test 5 Acute toxicity (LD50, method of Behrens and Kärbar)
Assay type: in vivo
Conditions: mouse, in vivo; Table-5c; oral, mice, observed for 7 days
experimentalReadout: LD50 at 168 h
Please answer using the number first and the unit second.

Q: For CC(CN1CCCC1)C(=O)c1ccc2c(c1)CCO2.Cl (stereo not shown) , write its LD50 at 168 h.
Ans: 685 mg/kg

###

Consider the following compounds; for each one, report its LD50 at 168 h.
Experiment: Test 5 Acute toxicity (LD50, method of Behrens and Kärbar)
Assay type: in vivo
Conditions: mouse, in vivo; Table-5b; oral, mice, observed for 7 days
Counter-ions that a name gives are not always drawn.
Provide the reading as a plain figure in mg/kg.

Q: Using the record for CC(CN1CCCCC1)C(=O)c1ccc2c(c1)OCO2.Cl (centres unmarked) [Example 57] , state its measured LD50 at 168 h.
Ans: 625

Q: Read off the recorded LD50 at 168 h for CCCC(CN1CCCCC1)C(=O)c1ccc2c(c1)OCO2 (centres unmarked) [Example 66, hydrochloride]
Ans: 625

###

Experiment: Test 5 Acute toxicity (LD50, method of Behrens and Kärbar)
Type: in vivo
Conditions: mouse, in vivo, po, Table-5a, mice, observed for 7 days
Protocol: Male mice of ddY strain, weighing 25 to 30 g, were used in groups of five. The test compounds were dissolved in distilled water and administered orally in various doses. […] Then, the LDso was calculated according to the method of Behrens and Kärbar.
Structures can show the parent of a compound that is named as a salt.
Kindly supply the reported LD50 at 168 h values for the records listed here.
State the answer as a number, implicitly in mg/kg.

Q: Give the reported LD50 at 168 h for this compound. CC(CN1CCCCCC1)C(=O)c1ccc(C2CC2)cc1.Cl (stereo not shown)
Ans: 655

Q: Please list LD50 at 168 h recorded for the compound Cc1ccc(C(=O)C(C)CN2CCCCC2)cc1 (stereo not shown) [Tolperisone HCl, reference compound]
Ans: 625

Q: # return recorded LD50 at 168 h for entry CCc1ccc(C(=O)C(C)CN2CCCCC2)cc1 (stereo not shown) [Eperisone HCl, Eperisone, reference compound]
Ans: 595

Q: For the compound CC(CN1CCCC1)C(=O)c1ccc(C2CC2)cc1.Cl (stereo not shown) , give its reported LD50 at 168 h.
Ans: 505

###

Test system: Male mice of ddY strain
Assay: Test 2 Anti-tremorine activity (inhibition of tremorine-induced tremor)
Format: in vivo
Conditions: Mus musculus, po, 0.5 h, Table-3a; 50 mg/kg po; After 30 min. from tremorine 20 mg/kg sc; 8 animals used; read-out: Inhibition of tremor (%)
Structures can show the parent of a compound that is named as a salt.
experimentalReadout: responders at 50 mg/kg (%)
Please state the figure in %; there is no need to write the unit.

Q: # return recorded responders at 50 mg/kg for entry Cc1ccc(C(=O)C(C)CN2CCCCC2)cc1 (centres unmarked) [Tolperisone HCl, reference compound]
Ans: 0

Q: Look up and state reported responders at 50 mg/kg for CC(CN1CCCC1)C(=O)c1ccc(C2CC2)cc1.Cl (centres unmarked) [Example 8, hydrochloride]
Ans: 100

Q: Retrieve responders at 50 mg/kg measured for CC(CN1CCCCC1)C(=O)c1ccc(C2CCCCC2)cc1.Cl (centres unmarked) [Example 48, hydrochloride] and print it.
Ans: 100

Q: Given CCC(CN1CCCCC1)C(=O)c1ccc(C2CC2)cc1.Cl (centres unmarked) [Example 11, hydrochloride] , respond with its responders at 50 mg/kg.
Ans: 100

Q: Report measured responders at 50 mg/kg; entry is CC(CN1CCCCCC1)C(=O)c1ccc(C2CC2)cc1.Cl (centres unmarked) [Example 9, hydrochloride]
Ans: 100

Q: Identify responders at 50 mg/kg associated with the compound CC(CN1CCCCC1)C(=O)c1ccc(C2CCCC2)cc1.Cl (centres unmarked) [Example 41, hydrochloride]
Ans: 75

Q: Output responders at 50 mg/kg of CCC(CN1CCCC1)C(=O)c1ccc(C2CC2)cc1.Cl (centres unmarked) [Example 10, hydrochloride]
Ans: 100

Q: Provide one value: measured responders at 50 mg/kg of CCc1ccc(C(=O)C(C)CN2CCCCC2)cc1 (centres unmarked) [Eperisone HCl, Eperisone, reference compound]
Ans: 87.5

###

I'd be grateful if you could share measured responders at 50 mg/kg for these entries.
Test system: Male mice of ddY strain
Assay: Test 2 Anti-tremorine activity (inhibition of tremorine-induced tremor)
Format: in vivo
Conditions: Mus musculus, po, 0.5 h, Table-3d; 50 mg/kg po; After 30 min.; 10 animals used; read-out: Inhibition of tremor (%)
Where a name gives a salt, the structure may show the parent alone.
Enter your answer as a number in %; do not include the unit.

Q: Name the recorded responders at 50 mg/kg of the item CC(CN1CCCCCC1)C(=O)c1ccc2c(c1)CCO2.Cl (stereo not drawn) [Example 93, hydrochloride] in your answer.
Ans: 100

Q: Note down responders at 50 mg/kg recorded for CCCC(CN1CCCCC1)C(=O)c1ccc2c(c1)CCO2.Cl (stereo not drawn) [Example 99, hydrochloride]
Ans: 100

Q: Identify measured responders at 50 mg/kg corresponding to Cc1ccc(C(=O)C(C)CN2CCCCC2)cc1 (stereo not drawn) [Tolperisone HCl, reference compound]
Ans: 0

Q: Given CCc1ccc(C(=O)C(C)CN2CCCCC2)cc1 (stereo not drawn) [Eperisone HCl, Eperisone, reference compound] , respond with its responders at 50 mg/kg.
Ans: 80

Q: Provide measured responders at 50 mg/kg value, entry: CCC(CN1CCCCCC1)C(=O)c1ccc2c(c1)CCO2.Cl (stereo not drawn) [Example 96, hydrochloride]
Ans: 100

Q: Give the value of responders at 50 mg/kg reported for the following: CC(CN1CCCCC1)C(=O)c1ccc2c(c1)CCO2.Cl (stereo not drawn) [Example 85, hydrochloride]
Ans: 100

###

Tested on: Male mice of ddY strain
Experiment: Test 2 Anti-tremorine activity (inhibition of tremorine-induced tremor)
Assay type: in vivo
Conditions: Mus musculus, po, 1 h, read-out: Inhibition of tremor (%)
experimentalReadout: responders at 50 mg/kg (%)
A number alone suffices; assume %.

Q: Return value of responders at 50 mg/kg for input CCCC(CN1CCCC1)C(=O)c1ccc2c(c1)CCO2.Cl (stereo not shown) [Example 98, hydrochloride] , no commentary.
Ans: 90

Q: Assign responders at 50 mg/kg to the following record: CCCC(CN1CCCCCC1)C(=O)c1ccc2c(c1)CCO2.Cl (stereo not shown) [Example 100, hydrochloride]
Ans: 100

Q: Kindly indicate its recorded responders at 50 mg/kg. Item: CC(CN1CCCC1)C(=O)c1ccc2c(c1)CCO2.Cl (stereo not shown) [Example 92, hydrochloride]
Ans: 100

Q: Look up responders at 50 mg/kg of CCC(CN1CCCC1)C(=O)c1ccc2c(c1)CCO2.Cl (stereo not shown) [Example 95, hydrochloride] and report it.
Ans: 100
